- Test system: RXF 393 renal
- method: NCI-60 one-dose screen, 48 h
- condition: 10 µM unless noted
The panel holds about 83,000 compounds, 20% with a hit somewhere; the sample as a whole holds those more often. Calls of active or inactive are those of the source. How the source made its calls: active means growth percent below 10; inactive means the rest.
Field 'call' accepts active, inactive

Check the results log: what was the call for Cc1cc(N(CCNc2ccnc3cc(Cl)ccc23)Cc2ccco2)nc(Cl)n1 ?
active

I would be grateful if you could indicate the recorded call for O=[N+]([O-])c1ccc(N/N=C(\C(=N/Nc2ccc([N+](=O)[O-])cc2[N+](=O)[O-])c2ccccc2)c2ccccc2)c([N+](=O)[O-])c1 .
inactive

Give the logged outcome of this assay for the following molecule: Clc1ccc(Cn2cc(-c3nc4ccc(Br)nc4n3Cc3ccc(Cl)cc3)c3cccnc32)cc1
inactive

Just curious, what result did CC(C)(C)CC(C)(C)c1ccc(OCCOCC[N+](C)(C)CC(=O)[O-])cc1 get here?
inactive

So what was the verdict on Cc1[c-]onc1C.Cc1[c-]onc1C.[Ag].[Ag].[NH-]S(=O)(=O)c1ccc(N=Nc2cc(N=Nc3ccc(S([NH-])(=O)=O)cc3)c3c(NC(=O)C(Cl)Cl)cccc3c2OC(=O)C(Cl)Cl)cc1 in this test?
inactive

What outcome does the record of this test show for O=C1C(=O)N(CCCCn2cc(-c3ccccc3)nn2)c2ccccc21 ?
inactive

# lookup: test call for COC(=O)[C@]12CC[C@@H](C)[C@H](C)[C@@H]1C1=CC[C@@H]3[C@@](C)(CC#N)C4=C(C[C@@]3(C)[C@]1(C)CC2)OC[C@]4(C)C=O
active

Recorded test outcome, item O=c1[nH]c(=S)[nH]c2nc[nH]c12
inactive

Test call, this molecule: Cn1cc(-c2csc(-c3cn(CCCN4CCCCC4)c4ccccc34)n2)c2cccnc21
active

How did this test come out for O=c1c(CNc2ccc(S(=O)(=O)Nc3nccs3)cc2)coc2ccccc12 ?
inactive

Lab log entry: c1ccc2[nH]c(-c3cc(-c4ccc5c(c4)OCO5)n[nH]3)nc2c1 — outcome as called in the assay?
inactive

Write down the call the test reported for this molecule. Item: N#C/C(=C\c1ccc(-c2ccccc2)o1)c1nc(-c2ccco2)cs1
inactive

Each molecule tested received a call. Report the one for O=C1OC(c2ccc(Cl)c(Cl)c2)=C/C1=C/c1cccc([N+](=O)[O-])c1 .
inactive

----------
- System: IGROV1 ovarian
- method: NCI-60 one-dose screen, 48 h
- condition: 10 µM unless noted
Compounds without any hit were thinned out: in the full panel of roughly 83,000, 20% have a hit. The source made the active and inactive calls. The calls were made as follows: active = growth percent below 10; inactive = the rest.
A correct response names exactly one class from active, inactive

Record lookup: outcome of this test for c1ccc2c(-c3nc(-c4c[nH]c5ncccc45)cs3)c[nH]c2c1 ?
inactive

Please state the recorded outcome for this compound: CC1(C)NC2=C(C(Nc3cccnc3)N1)C(c1ccc([N+](=O)[O-])cc1)C(C(=O)c1ccc(N=[N+]=[N-])cc1)O2 (stereo unspecified)
inactive

GET /call?item= O=C(CI)Nc1ccc(O)c2ccccc12 returns the recorded outcome of this test.
active

How was C=C(C)[C@@H]1CC[C@]2(C(=O)N3CCN(C)CC3)CC[C@]3(C)[C@H](CC[C@@H]4[C@@]5(C)C/C(=C/c6ccc(C(F)(F)F)cc6)C(=O)C(C)(C)[C@@H]5CC[C@]43C)[C@@H]12 classified in this test?
inactive

What outcome does the record of this test show for Cn1cc(-c2csc(-c3cn(C(=O)OC(C)(C)C)c4ccccc34)n2)c2cccnc21 ?
inactive

Identify the outcome logged in this assay for the compound shown: COC(=O)[C@]12CC[C@@H](C)[C@H](C)[C@@H]1C1=CC[C@@H]3[C@@](C)(CC#N)C4=C(C[C@@]3(C)[C@]1(C)CC2)OC[C@]4(C)C=O
inactive
